molecular target: EphB2 (receptor of Table 1); assay: inhibition of ephrin-B2 AP binding to EphB2 (panning receptor)
pIC50: −log10 of the molar value.
Attribute measured: pIC50

# example entries with known answers
{"columns": ["Binder", "Value reported"],
 "data": [
  ["WHWTIEPFAITS (Panned on EphB2) [WHWTIEPFAITS peptide (SEQ ID NO:8)]", "< 4.00"],
  ["DHWRILPFSLSS (Panned on EphB2) [DHWRILPFSLSS peptide (SEQ ID NO:10)]", "< 4.00"]
]}

// below: pIC50 requested for another binder
Task item: # lookup: pIC50 of SHWPISPYSLLS (Panned on EphB2) [SHWPISPYSLLS peptide (SEQ ID NO:14)]
Reply: < 4.00
